Measured values drawn from patent US20090012085A1 for this set.

- Protocol description: Phase I dose-escalating study, plasma pharmacokinetics in patients with solid tumor
- Assay type: in vivo, human
- Conditions: human, plasma, 25 mg, 25 mg QD 4/1 (n = 6), nominal time 4 h; read-out: Mean plasma concentration following the last dose on cycle 1 day 28
Quantity: concentration at 4 h (ng/mL)
Numbers only; they are read as ng/mL.

Determine its reported concentration at 4 h: `Cc1[nH]c(/C=C2\C(=O)Nc3ccc(F)cc32)c(C)c1C(=O)NC[C@H](O)CN1CCOCC1` 58.3

----------
- Protocol description: Phase I dose-escalating study, plasma pharmacokinetics in patients with solid tumor
- Format: in vivo, human
- Conditions: human, plasma, 50 mg, 50 mg QD 4/1 (n = 5), nominal time 144 h; read-out: Mean plasma concentration following the last dose on cycle 1 day 28
Quantity: concentration at 144 h

Write down concentration at 144 h measured for item `Cc1[nH]c(/C=C2\C(=O)Nc3ccc(F)cc32)c(C)c1C(=O)NC[C@H](O)CN1CCOCC1` 3.27 ng/mL

----------
- Protocol description: Phase I dose-escalating study, plasma pharmacokinetics in patients with solid tumor
- Assay type: in vivo, human
- Conditions: human, plasma, 50 mg, 50 mg QD (4/1), C2D28 (n = 3), plasma; read-out: AUC(0-24), mean (% CV)
Quantity: AUC(0-t) (ng·h/mL)
Value expressed in ng·h/mL; do not type the unit.

Give the measured AUC(0-t) for `Cc1[nH]c(/C=C2\C(=O)Nc3ccc(F)cc32)c(C)c1C(=O)NC[C@H](O)CN1CCOCC1` 1790

----------
- Protocol description: Phase I dose-escalating study, plasma pharmacokinetics in patients with solid tumor
- Format: in vivo, human
- Conditions: human, plasma, 150 mg QD, 150 mg QD Continuous (n = 6), nominal time 6 h; read-out: Mean plasma concentration following the last dose on cycle 1 day 28
Quantity: concentration at 6 h (µg/mL)
Just the number in µg/mL, nothing appended.

Return value of concentration at 6 h for input `Cc1[nH]c(/C=C2\C(=O)Nc3ccc(F)cc32)c(C)c1C(=O)NC[C@H](O)CN1CCOCC1` , no commentary. 0.471

----------
- Protocol description: Phase I dose-escalating study, plasma pharmacokinetics in patients with solid tumor
- Assay type: in vivo, human
- Conditions: human, plasma, 100 mg, 100 mg QD 4/1 (n = 6), nominal time 24 h; read-out: Mean plasma concentration following the last dose on cycle 1 day 28
Quantity: concentration at 24 h (µg/mL)
// return numeric value only (unit: µg/mL, not printed)

Please report concentration at 24 h for the following molecule: Cc1[nH]c(/C=C2\C(=O)Nc3ccc(F)cc32)c(C)c1C(=O)NC[C@H](O)CN1CCOCC1 [compound 1] 0.111

----------
- Protocol description: Phase I dose-escalating study, plasma pharmacokinetics in patients with solid tumor
- Assay type: in vivo, human
- Conditions: human, plasma, 50 mg, 50 mg QD (4/1), C1D1 (n = 6), plasma; read-out: C(trough, 24 h), mean (% CV)
Quantity: concentration at 24 h (ng/mL)
Express your answer in ng/mL, writing the number without its unit.

// fetch concentration at 24 h given entry Cc1[nH]c(/C=C2\C(=O)Nc3ccc(F)cc32)c(C)c1C(=O)NC[C@H](O)CN1CCOCC1 [compound 1] 20.8

----------
- Protocol description: Phase I dose-escalating study, plasma pharmacokinetics in patients with solid tumor
- Format: in vivo, human
- Conditions: human, plasma, 150 mg QD, 150 mg QD 4/1 (n = 5), nominal time 8 h; read-out: Mean plasma concentration following the last dose on cycle 1 day 28
Quantity: concentration at 8 h (ng/mL)
Your answer should be a plain number; it is taken to be in ng/mL.

Please report concentration at 8 h for the following compound: `Cc1[nH]c(/C=C2\C(=O)Nc3ccc(F)cc32)c(C)c1C(=O)NC[C@H](O)CN1CCOCC1` 142
